- System: Caco-2 human colon carcinoma cell line
- protocol.conditions: pH 7.4
quantity.measured: Papp A→B (×10⁻⁶ cm/s)
All answers are understood in ×10⁻⁶ cm/s, so give the number only.

Recorded result, Cn1c(=O)c2c(c3cc(Nc4ccnc(Cl)c4Cl)ccc31)N[C@@H](C1CC1)C(F)(F)CO2 , Papp A→B: 9.1

----------
- tgt: CHRM2 (Homo sapiens)
- Sequence (P08172 1-466): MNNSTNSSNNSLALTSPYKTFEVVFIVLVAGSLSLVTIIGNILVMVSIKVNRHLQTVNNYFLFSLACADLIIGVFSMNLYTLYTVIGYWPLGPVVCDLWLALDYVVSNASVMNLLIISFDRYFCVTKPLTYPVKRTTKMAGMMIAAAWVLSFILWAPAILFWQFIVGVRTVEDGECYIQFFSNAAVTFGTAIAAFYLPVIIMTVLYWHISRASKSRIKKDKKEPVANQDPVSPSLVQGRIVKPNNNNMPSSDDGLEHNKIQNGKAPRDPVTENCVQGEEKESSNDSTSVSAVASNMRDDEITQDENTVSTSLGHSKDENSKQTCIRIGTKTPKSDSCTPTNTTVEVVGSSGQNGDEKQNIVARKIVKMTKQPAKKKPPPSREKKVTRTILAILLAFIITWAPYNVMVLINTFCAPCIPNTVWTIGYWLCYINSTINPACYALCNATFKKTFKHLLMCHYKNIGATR
- procedure.text: SAFETYscan cAMP CHRM2 Antagonist
quantity.measured: IC50

With CHRM2 (Homo sapiens) as the test system, Cn1c(=O)c2c(c3cc(Nc4ccnc(F)c4Cl)ccc31)N[C@@H](C1CC1)C(F)(F)CO2 showed IC50 of > 10 µM

The reported measurements were obtained from paper PMC10150366.
